These data points were gathered from PubChem BioAssay (NCI).

Listed compounds paired with reported log10 TGI
tested on: A498 renal; experiment: NCI tumour cell line growth inhibition, 48 h
In our notation, the value equals log10 of TGI in µM.

These solved cases illustrate the format of a correct answer.
compound | study system | reported
O=C(Oc1c(I)ccccc1=O)c1ccc([N+](=O)[O-])cc1 | A498 renal | 1.23
CC1=CC2=C(C)C3(CC3)[C@@](C)(O)C(=O)C2=C1 | A498 renal | -0.30
CCOP(=O)(OCC)/C(C#N)=C\c1cccc2ccccc12 | A498 renal | 1.99
CC1=NNC(N)=N/C1=C/C(Sc1ccc(Cl)cc1)c1cccs1 (stereo unspecified) | A498 renal | 1.57

Form: compound = O=c1c(Cc2ccc(Cl)cc2)nnc2sc(-c3ccc([N+](=O)[O-])cc3)nn12 ; log10 TGI = 1.80
